B1: LINE1-full (parent)
chain: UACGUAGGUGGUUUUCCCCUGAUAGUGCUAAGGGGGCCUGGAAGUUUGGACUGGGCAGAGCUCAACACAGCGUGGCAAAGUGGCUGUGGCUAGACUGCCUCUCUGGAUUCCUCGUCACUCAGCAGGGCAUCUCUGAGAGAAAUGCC

# Variants of: B1
# measurementProtocol: self-cleavage, relative activity (ratio to wild type); higher = more cleavage; in vitro, sequencing; the parent is a self-cleaving ribozyme
Entry flag: Y if self-cleavage reaches 0.8; N if it does not.

Worked set:
A43C A65U    N
A57U G126U    N
G11A U109C    Y
U119A G144A    Y
A6U G127A    N

// query Kindly determine if self-cleavage recorded for C68U U85C is above or exactly 0.8.
// result N

// query Same question, A69G C128U this time
// result N

// query Also need "C37G" , thanks.
// result Y

// query Same read-out for U62C C118U ?
// result N

// query What do you get for G40A U119C ?
// result Y

// query Same again, this time with U12G A124G
// result Y

// query Next variant up: U5A C128U
// result Y
